Each entry below carries its recorded GI50.
# System: SNB-75
# PROTOCOL_NOTES: NCI tumour cell line growth inhibition, 48 h
Active and inactive are the calls of the source. No stated cut-off is given here; in the data, active = GI50 up to about 1.1 µM and inactive = higher.

MOLECULE: Cc1[nH]c2cc([N+](=O)[O-])ccc2c1[N+](=O)[O-]
MEASURED_ON: SNB-75
VALUE_MEASURED: 19 µM (inactive)
//
MOLECULE: CC1=CC(=O)/C(=C/Nc2nc(-c3ccc([N+](=O)[O-])cc3)cs2)C(=O)O1
MEASURED_ON: SNB-75
VALUE_MEASURED: > 100 µM (inactive)
//
MOLECULE: CN(C)CCNC(=O)c1ccccc1Nc1c(Cl)cccc1Cl
MEASURED_ON: SNB-75
VALUE_MEASURED: 2.07 µM (inactive)
//
MOLECULE: CSc1c(C#N)c(O)nc(N)c1C(=O)Nc1ccc(C)cc1
MEASURED_ON: SNB-75
VALUE_MEASURED: > 100 µM (inactive)
//
MOLECULE: O=C(Nc1nc2ccc([N+](=O)[O-])cc2s1)C(=O)C(C(=O)c1ccccc1F)C1OC(=O)c2ccccc21 (stereo unspecified)
MEASURED_ON: SNB-75
VALUE_MEASURED: 30.9 µM (inactive)
//
MOLECULE: NCCCNCCSSCc1ccccc1CSSCCNCCCN
MEASURED_ON: SNB-75
VALUE_MEASURED: 16.4 µM (inactive)

Look at this molecule and give its reported GI50. COc1ccc(CCN2CCC(C#N)(c3ccc(OC)c(OC)c3)CC2)cc1OC 30.5 µM (inactive)

Look at this molecule and give its reported GI50. CCOc1ccc(/N=C/c2cccc3cccnc23)cc1 > 100 µM (inactive)

Look at this molecule and give its reported GI50. CCSSCS(C)(=O)=O 23.3 µM (inactive)

Look at this molecule and give its reported GI50. O=C(NC/C=C/Br)NC1CCNc2ccccc21 (stereo unspecified) 45 µM (inactive)

Look at this molecule and give its reported GI50. Cc1cc2c(c(C(=O)O)c1C)-c1cccc(Cl)c1C2=O > 100 µM (inactive)

====

# Tested on: EKVX
# PROTOCOL_NOTES: NCI tumour cell line growth inhibition, 48 h
Calls of active or inactive are those of the source. Cut-off read from the data, not from the text of the source: active = GI50 up to about 1.1 µM and inactive = higher.
I would appreciate it if you answered using one of these outcomes: YES (active), NO (inactive)

For orientation, consider the following solved cases.
COMPOUND: CN(C)CCn1c(=O)c2ccc3c4c(nn3CCN(C)C)c3cc([N+](=O)[O-])ccc3n(c1=O)c24
CLASS: YES
--
COMPOUND: COc1ccc(OC)c2sc(N3C(=O)/C(=C/c4ccccc4S)N=C3c3ccccc3)nc12
CLASS: NO
--
COMPOUND: COC(=O)C1(C(=O)OC)N=C(C)OC1/C=C/c1ccccc1 (stereo not given)
CLASS: NO
--
COMPOUND: O=S(=O)(O)c1ccc(/N=N/c2ccc(/N=N/c3c(O)ccc4ccccc34)cc2)cc1
CLASS: NO
--
COMPOUND: C=CCN(N=O)C(=O)NCCCCC(NC(C)=O)C(=O)NCc1ccccc1 (stereo not given)
CLASS: NO

Hi team, can someone confirm the assay call for C[C@]12CC[C@H](O)C=C1CC[C@@H]1[C@@H]2CC[C@]2(C)C(c3ccc(=O)oc3)CC[C@]12O (stereo not given in full) ? YES

Hi team, can someone confirm the assay call for c1ccc2c(c1)sc1c3cnccc3ccc21 ? NO

Hi team, can someone confirm the assay call for Cc1ccc(Cc2n[nH]c(=O)n2/N=C\CC/C=N\n2c(Cc3ccc(C)cc3)n[nH]c2=O)cc1 ? NO

Hi team, can someone confirm the assay call for Oc1ccc(Cl)cc1/N=N\c1c(O)ccc2ccccc12 ? NO

Hi team, can someone confirm the assay call for C=C1C(=O)OC2C1CC1OC2C(C)CCC/C(C)=C\CCC1(C)O (stereo not given) ? NO

Hi team, can someone confirm the assay call for O=C1NC(=S)NC(=O)C1=Cc1cc2c(cc1[N+](=O)[O-])OCO2 ? NO

Hi team, can someone confirm the assay call for N#CCCNCCN(CCN(C(=O)Nc1ccccc1)c1ccccc1)C(=O)Nc1ccccc1 ? NO

Hi team, can someone confirm the assay call for COc1cccc(N2C(=O)C3c4[nH]c5ccc(C)cc5c4C4CCC(C)CC4C3C2=O)c1 (stereo not given) ? NO

====

# System: K562
# PROTOCOL_NOTES: NCI tumour cell line growth inhibition, 48 h
The source made the active and inactive calls. No stated cut-off is given here; in the data, active = GI50 up to about 1.1 µM and inactive = higher.
I would appreciate it if you answered using one of these outcomes: active, inactive

For orientation, consider the following solved cases.
MOLECULE: CC(=O)CC1(O)C(=O)c2c(Br)sc(Br)c2C1=O
CLASS: inactive

MOLECULE: COc1cc(C2c3cc4c(cc3[C@@H](NCCN3CCOCC3)C3COC(=O)[C@H]23)OCO4)cc(OC)c1O (some centres not stated)
CLASS: inactive

Hi team, can someone confirm the assay call for O=C(O)Cc1c[nH]c2ccc(F)cc12 ? inactive

Hi team, can someone confirm the assay call for CC(C)c1ccccc1SCc1cc(=O)cc(CSc2ccccc2C(C)C)o1 ? inactive

Hi team, can someone confirm the assay call for NCCCNCCSSCCCCS(=O)O ? inactive

====

# Tested on: MOLT-4
# PROTOCOL_NOTES: NCI tumour cell line growth inhibition, 48 h
Activity calls are given as the source filed them. Cut-off read from the data, not from the text of the source: active = GI50 up to about 1.1 µM and inactive = higher.
I would appreciate it if you answered using one of these outcomes: active, inactive

COMPOUND: C=CCOc1ccc(C(=N/NC(=O)c2ccccc2)/N=N/c2ccccc2)cc1OC
MEASURED_ON: MOLT-4
CLASS: inactive
--
COMPOUND: CC(=O)O[C@H]1CC[C@@]2(C)C(=CC[C@@H]3[C@@H]2CC[C@]2(C)C(=N/O)/C(=C\c4ccccc4)C[C@@H]32)C1
MEASURED_ON: MOLT-4
CLASS: inactive
--
COMPOUND: COCCOC1=CC(=O)c2c(O)ccc(O)c2C1=O
MEASURED_ON: MOLT-4
CLASS: inactive
--
COMPOUND: CC(Oc1ccc2c(=O)cc(-c3ccccc3)oc2c1)C(=O)O (configuration not stated)
MEASURED_ON: MOLT-4
CLASS: inactive
--
COMPOUND: CC(C)=CCC[C@@H](C)c1c2ncc[nH]c-2c(C)c(=O)c1O
MEASURED_ON: MOLT-4
CLASS: inactive
--
COMPOUND: CC(=O)C(C(=O)C(=O)Nc1cc(Cl)c(Cl)cc1Cl)c1csc(N)n1 (configuration not stated)
MEASURED_ON: MOLT-4
CLASS: inactive

Hi team, can someone confirm the assay call for COc1cc(C2C(C(=O)Nc3ccc([N+](=O)[O-])cc3)=C(C)NC(C)=C2C(=O)Nc2ccc([N+](=O)[O-])cc2)ccc1O ? inactive

Hi team, can someone confirm the assay call for COc1ccc(OC)c(N2C(=O)CSC2c2cc(OC)c(OC)c(OC)c2)c1 (configuration not stated) ? inactive

Hi team, can someone confirm the assay call for N#CCC1C2CC3C(C2=O)C13 (configuration not stated) ? inactive

====

Each entry below carries its recorded GI50.
# System: SF-295
# PROTOCOL_NOTES: NCI tumour cell line growth inhibition, 48 h
Active and inactive are the calls of the source. Cut-off read from the data, not from the text of the source: active = GI50 up to about 1.1 µM and inactive = higher.

Reference set, count: 3
MOLECULE: CC1CC(c2ccccc2)=Nc2ccccc2S1(=O)=O (configuration not stated)
VALUE_MEASURED: 20.2 µM (inactive)

MOLECULE: NCCCNc1ccc2c3c(nn2CCNCCO)-c2c(O)ccc(O)c2C(=O)c13
VALUE_MEASURED: 0.889 µM (active)

MOLECULE: O=C(Cc1nc2ccccc2[nH]c1=O)c1c[nH]c2ccccc12
VALUE_MEASURED: 9.04 µM (inactive)

Look at this molecule and give its reported GI50. CN(C)C(=S)SCC(=O)Nc1ccccc1 > 100 µM (inactive)

Look at this molecule and give its reported GI50. NCCCNCCSSCCCCS(=O)O 36.2 µM (inactive)

Look at this molecule and give its reported GI50. CCCCCC(=O)OCCOCCOCCOCCOCCOCc1ccccc1 > 100 µM (inactive)

Look at this molecule and give its reported GI50. C=CCOc1ccc2c(C)cc(=O)oc2c1C 23.3 µM (inactive)

====

# Test system: HOP-92
# PROTOCOL_NOTES: NCI tumour cell line growth inhibition, 48 h
Calls of active or inactive are those of the source. No stated cut-off is given here; in the data, active = GI50 up to about 1.1 µM and inactive = higher.
MEASURED_ATTRIBUTE: GI50

Reference set, count: 4
MOLECULE: Oc1c(Br)cc(Br)cc1CN(Cc1cc(Br)cc(Br)c1O)C1CCCCC1
VALUE_MEASURED: 32.5 µM (inactive)
--
MOLECULE: COc1cc2c(cc1OCCCC(=O)Nc1cc(C(=O)Nc3cc(C(=O)Nc4cc(C(=O)NCCCN(C)C)n(C)c4)n(C)c3)n(C)c1)N=C[C@@H]1CCCN1C2=O
VALUE_MEASURED: 1.88 µM (inactive)
--
MOLECULE: C[N+](C)(C)CCOP(=O)(O)OP(=O)([O-])OCC1CCC(n2ccc(N)nc2=O)O1 (stereo not given)
VALUE_MEASURED: > 100 µM (inactive)
--
MOLECULE: O=C(O)/C=C/C(=O)O
VALUE_MEASURED: > 100 µM (inactive)

Look at this molecule and give its reported GI50. CCCC[N+](CCCC)(CCCC)CCCC.O=S(=O)([O-])ON=C1c2ccccc2-c2ccccc21 > 100 µM (inactive)

Entry source: ChEMBL document CHEMBL1201862
